- Target: BRAF-GTP-KRAS-G12C complex (Homo sapiens, UniProt P01116+P62937, G12C)
- Construct: 50 nM of His6-KRas G12C-GTP (1-169); 500 nM of tagless CypA (1-165)
- Test summary: KRAS-BRAF complex disruption through competition with CYPA-compound by TR-FRET
- Condition context: biochemical BRAF-KRAS G12C-GTP disruption assay EC50, with CYPA
pEC50: −log10 of the molar value.
Below: a set of entries, each annotated with reported pEC50.

Example compounds with recorded pEC50:
**Q:** Value lookup for pEC50; key = C=CC(=O)N1CCC(C(=O)N(C)C(C(=O)NC2Cc3cc(O)cc(c3)-c3ccc4c(c3)c(cn4C(C)(C)C#N)CC(C)(C)COC(=O)C3CCCN(N3)C2=O)C2CCCC2)C1 (stereo not shown)
**A:** 5.30 to 6.30

**Q:** Can you look up the measured pEC50 of "CC[C@@H](C(=O)N[C@H]1Cc2cc(O)cc(c2)-c2ccc3c(C(C)(C)C#N)cn(c3c2)CC(C)(C)COC(=O)[C@@H]2CCCN(N2)C1=O)N(C)C(=O)C1CN(C(=O)CCl)C1" for me?
**A:** ≥ 6.30

Continuing:
**Q:** Request the reported pEC50 associated with CC(C)C(C(=O)NC1Cc2cc(O)cc(c2)-c2ccc3c(C#N)cn(c3c2)CC(C)(C)COC(=O)C2CCCN(N2)C1=O)N(C)C(=O)C1CN(C(=O)CCl)C1 (stereo not shown)
**A:** ≥ 6.30

**Q:** # get_value(readout='pEC50', item= CC1COC(=O)C2CCCN(N2)C(=O)C(NC(=O)C(C(C)C)N(C)C(=O)C2CN(C(=O)CCl)C2)Cc2cc(O)cc(c2)-c2ccc3c(S(C)(=O)=O)cn(c3c2)C1 (single isomer, unassigned) )
**A:** ≥ 6.30

**Q:** May I ask what pEC50 has been recorded for "CC(C)[C@@H](C(=O)N[C@H]1Cc2cc(O)cc(c2)-c2ccc3c(C#N)ccc(c3c2)OCCCOC(=O)[C@@H]2CCCN(N2)C1=O)N(C)C(=O)C1CN(C(=O)CCl)C1" ?
**A:** 5.30 to 6.30

**Q:** Which pEC50 value belongs to C=CC(=O)N1CCC(C(=O)N(C)C(C(=O)NC2Cc3cc(O)cc(c3)-c3ccc4c(c3)c(cn4C(C)(C)C#N)CC(C)(C)COC(=O)C3CCCN(N3)C2=O)C2CCCCC2)C1 (stereo not shown) ?
**A:** < 5.30

**Q:** Given C=CC(=O)N1CCC(C(=O)N(C)C(C(=O)NC2Cc3cc(O)cc(c3)-c3ccc4c(c3)N(CC(C)COC(=O)C3CCCN(N3)C2=O)CC4(C)C(C)=O)C(C)C)C1 (stereo not shown) , state its recorded pEC50.
**A:** < 5.30

**Q:** // returns reported pEC50 for input CC(C)[C@@H](C(=O)N[C@H]1Cc2cc(O)cc(c2)-c2ccc3c(C(C)(C)C#N)cn(c3c2)CC(C(F)F)COC(=O)[C@@H]2CCCN(N2)C1=O)N(C)C(=O)C1CN(C(=O)CCl)C1 (single isomer, unassigned)
**A:** ≥ 6.30

**Q:** Which measured pEC50 value corresponds to CC1COC(=O)C2CCCN(N2)C(=O)C(NC(=O)C(C(C)C)N(C)C(=O)C2CN(C(=O)CCl)C2)Cc2cc(O)cc(c2)-c2ccc3c(c2)N(C1)CC3(C)C#N (mixture of isomers) ?
**A:** ≥ 6.30

**Q:** Quick one: pEC50 of CC1COC(=O)C2CCCN(N2)C(=O)C(NC(=O)C(C(C)C)N(C)C(=O)C2CN(C(=O)C(C)Cl)C2)Cc2cc(O)cc(c2)-c2ccc3c(C(C)(C)C#N)cn(c3c2)C1 (stereo not shown) ?
**A:** 5.30 to 6.30

**Q:** Record request: pEC50 value, item CC1COC(=O)C2CCCN(N2)C(=O)C(NC(=O)C(C(C)C)N(C)C(=O)C2CN(C(=O)CCl)C2)Cc2cc(O)cc(c2)-c2ccc3c(c2)N(C1)CC3(C)CCC#N (mixture of isomers)
**A:** ≥ 6.30

**Q:** Could you share which pEC50 value was measured for "COc1ccc(-c2cn3c4cc(ccc24)-c2cc(O)cc(c2)C[C@H](NC(=O)[C@H](C(C)C)N(C)C(=O)C2CN(C(=O)CCl)C2)C(=O)N2CCC[C@H](N2)C(=O)OC[C@@H](C)C3)cc1" ?
**A:** ≥ 6.30

**Q:** Given the compound "CC(C)[C@@H](C(=O)N[C@H]1Cc2cc(O)cc(c2)-c2ccc3c(C#N)cn(c3c2)CC(C)(C)CNC(=O)[C@@H]2CCCN(N2)C1=O)N(C)C(=O)C1CN(C(=O)CCl)C1" , what is its reported pEC50?
**A:** ≥ 6.30
